The measurements presented in this section are drawn from patent US20260315372A1.

Quick reference: half-life of the listed items.
# assay: in vivo
# conditionNotes: dog, sc, 0.5 mg/kg
Just the number please, in min, no unit attached.

compound: [2H]C([2H])([2H])N(C([2H])([2H])[2H])C([2H])([2H])C([2H])([2H])c1c[nH]c2ccccc12 [DMT-d10]
readout: half-life
result: 43.3

# compound CN(C)CCc1c[nH]c2ccccc12 [DMT] ; its half-life = 32

----------
Quick reference: AUC(0-inf) of the listed items.
# assay: in vivo
# conditionNotes: dog, sc, 0.5 mg/kg
Just the number please, in µg·h/mL, no unit attached.

molecule: CN(C)CCc1c[nH]c2ccccc12 [DMT]
readout: AUC(0-inf)
result: 0.0487

Note: attention shifts to another entry.
# molecule [2H]C([2H])([2H])N(C([2H])([2H])[2H])C([2H])([2H])C([2H])([2H])c1c[nH]c2ccccc12 [DMT-d10] ; its AUC(0-inf) = 0.109

----------
# assay: in vivo
# Design: species or system male Beagle dogs
# conditionNotes: dog, sc
readout: half-life

# molecule `[2H]C([2H])([2H])N(C([2H])([2H])[2H])C([2H])([2H])C([2H])([2H])c1c[nH]c2ccccc12` ; its half-life = ~54 min

----------
# assay: in vivo
# conditionNotes: dog, sc, 0.5 mg/kg
Quick reference: Tmax of the listed items.
Just the number please, in min, no unit attached.

mol: [2H]C([2H])([2H])N(C([2H])([2H])[2H])C([2H])([2H])C([2H])([2H])c1c[nH]c2ccccc12
result: 30

# molecule `CN(C)CCc1c[nH]c2ccccc12` ; its Tmax = 30

----------
# assay: in vivo
# conditionNotes: dog, sc, 0.5 mg/kg, Vz/F (mean)
Quick reference: Vd/F of the listed items.
Just the number please, in L/kg, no unit attached.

mol: [2H]C([2H])([2H])N(C([2H])([2H])[2H])C([2H])([2H])C([2H])([2H])c1c[nH]c2ccccc12
Vd/F, L/kg: 4.73

# molecule `CN(C)CCc1c[nH]c2ccccc12` ; its Vd/F = 7.59

----------
# assay: in vivo
# conditionNotes: dog, sc, 0.5 mg/kg
Quick reference: MRT inf of the listed items.
Just the number please, in h, no unit attached.

mol: CN(C)CCc1c[nH]c2ccccc12
MRT inf (h): 0.867

Note: attention shifts to another entry.
# compound `[2H]C([2H])([2H])N(C([2H])([2H])[2H])C([2H])([2H])C([2H])([2H])c1c[nH]c2ccccc12` ; its MRT inf = 1.23

----------
# assay: in vivo
# Set-up: species or system male Beagle dogs
# conditionNotes: dog, sc
readout: MRT inf

# compound `[2H]C([2H])([2H])N(C([2H])([2H])[2H])C([2H])([2H])C([2H])([2H])c1c[nH]c2ccccc12` ; its MRT inf = ~1.5 h

----------
# assay: in vivo
# conditionNotes: dog, sc, 0.5 mg/kg
Quick reference: Cmax of the listed items.
Just the number please, in ng/mL, no unit attached.

compound: [2H]C([2H])([2H])N(C([2H])([2H])[2H])C([2H])([2H])C([2H])([2H])c1c[nH]c2ccccc12 [DMT-d10]
unitString: ng/mL
Cmax: 75.6

Note: attention shifts to another entry.
# compound CN(C)CCc1c[nH]c2ccccc12 [DMT] ; its Cmax = 58.1
